Below is a list of entries, each paired with its recorded max response value.
System: HaCat
Experiment: Cytotoxic Profiling of Annotated Libraries Using Quantitative High-Throughput Screening (AID 1296008); also: % is scaled to controls: 0 for no effect and ±100 for the full control effect; nearly all actives have a fitted effect of over 60% in size
Details: Five cell lines viability, CellTiter-Glo ATP luminescence, 48-72 h; hits give low values
Results filed as inconclusive are left out.
PROPERTY_NAME: max response (%)

COMPOUND	UNIT_TAG	RECORDED_RESULT
O=C(NCCCCCCCCNC(=O)C(Cl)Cl)C(Cl)Cl	%	-4.24
COc1ccc(C2(N(C)C(=O)c3ccc(NC(=O)c4ccco4)cc3)CCOCC2)cc1	%	-27.5
C[C@@H]1C[C@H]2O[C@@]3(O[C@@H]2C(C)(C)O)C(O)[C@@]2(C)C4CCC5C(C)(C)[C@@H](O[C@H]6OC[C@H](O)[C@@H](O)[C@@H]6O)CC[C@@]56C[C@@]46CC[C@]2(C)C13 (stereo partly specified)	%	-16.2
O=C(NCCCNC(=O)c1ccc[nH]c1=O)c1cc(-c2ccccc2)on1	%	-1.65
CC(C)S(=O)(=O)NC[C@H](C)c1ccc(-c2ccc(CCNS(C)(=O)=O)cc2)cc1	%	2.78
CCC[C@@]1(CCc2ccccc2)CC(O)=C([C@H](CC)c2cccc(NS(=O)(=O)c3ccc(C(F)(F)F)cn3)c2)C(=O)O1	%	2.03

----------
Tested on: Tov112D
Assay: Primary qHTS to identify gynecologic anti-cancer compounds using libraries of approved drugs and bioactive compounds (AID 1345084); also: nearly all actives have a fitted effect of over 55% in size
Conditions: Gynecologic cancer cell panel viability, ATPlite luminescence, 48 h; series mostly up to 57.5 µM
Inconclusive results are not listed. The source made the active and inactive calls. Calls follow the shape of the dose curve; as a rule, active = well fitted cell-killing curve with a large enough effect; inconclusive = small, poorly fitted or top-dose-only effect, or effect the other way; inactive = flat fitted curve, though single readings scatter.
Outcomes: active, inactive

COMPOUND	TARGET_OR_TEST_SYSTEM	GROUP
COc1cc2nc(N3CCN(C(=O)c4ccco4)C4CCCCC43)nc(N)c2cc1OC (configuration not stated)	Tov112D	inactive
C=C1CCC2C(C)(C(=O)O)CCCC2(C)C1CCC1=CCOC1=O (configuration not stated)	Tov112D	inactive
CCNc1nc(Nc2cc(F)c(C(=O)N3CCOCC3)cc2OC)ncc1C(F)(F)F	Tov112D	inactive
Cn1ncc2cc(-c3cnc(N)c(Cl)c3N3CCC4(CCNC4=O)CC3)ccc21	Tov112D	inactive
CCCc1ccc(OCC(=O)N(Cc2nc(-c3cccnc3)no2)C(C)C)cc1	Tov112D	inactive
CC1CC(=O)C2=C(C1)C1OC1C1(O)C2C(=O)c2cccc(O)c2C1O (configuration not stated)	Tov112D	active
Cc1ccc(-c2ncccn2)c(C(=O)N2C[C@H](COc3ccc(F)cn3)CC[C@H]2C)c1	Tov112D	inactive
Cn1ccc(NC(=O)c2cc(Oc3ccc(C(=O)N4CCC4)c(F)c3)c3c(c2)OC(C)(C)C3)n1	Tov112D	inactive
OC(CC1c2ccccc2-c2cncn21)C1CCCCC1 (configuration not stated)	Tov112D	inactive
N#Cc1cc(C2=Nc3ccc(Br)cc3NC(=O)C2)ccn1	Tov112D	inactive
CO[C@H]1[C@@H](O)[C@H](O[C@H]2CC[C@@]3(C)C(CCC4C3CC[C@]35COC6(COC(=O)C6)C3CCC45O)C2)O[C@@H](C)[C@@H]1OC1OC(CO)C(OC2OC(CO)C(O)C(O)C2O)C(O)C1O (some centres not stated)	Tov112D	active
CC(=O)NCc1cccc(OC[C@@H](O)CNCCc2ccc(NS(=O)(=O)c3ccccc3)cc2)c1	Tov112D	inactive
O=C(NCC1CCN(Cc2cccc(Cl)c2)CC1)[C@@H]1CCCN(c2ncnc3c2nc2n3CCCC2)C1	Tov112D	inactive
CCC(CC)(NC(=O)C(C)C)C(=O)N[C@@H](CCCN=C(N)N)C(=O)NC1(C(=O)NC(c2ccc(F)cc2)c2ccc(F)cc2)CCCC1	Tov112D	inactive
COc1cc2c(cc1OCCCN1CCCC1)N=C(N)C21CCC1	Tov112D	inactive
O=C(c1ccccc1)c1c(O)cc(O)cc1O[C@@H]1O[C@H](CO)[C@@H](O)[C@H](O)[C@H]1O	Tov112D	active
CCN(CC)C(=O)c1ccc(Nc2nc(OCC3CCCCC3)c3[nH]cnc3n2)cc1	Tov112D	inactive
